Would you kindly list N2 permeability for each of these compounds?
Answers are plain numbers, in Barrer.

The cases that follow already have their N2 permeability on record.
1) *c1c(C)c(C)c(N2C(=O)c3cc4c(cc3C2=O)C2(CC(C)(C)c3cc5c(cc32)C(=O)N(*)C5=O)CC4(C)C)c(C)c1C (repeat unit)    257
2) */C=C/C1CC(*)CC1[Si](C)(C)C[Si](C)(C)C (repeat unit)    3.7

Items follow; give N2 permeability for each.
1. *Cc1ccc(C*)c(C)c1 (repeat unit)
2. *Oc1cc2c(cc1O*)C1(CC2(C)C)CC(C)(C)c2cc3c(cc21)Oc1c(CN)c(*)c(*)c(CN)c1O3 (repeat unit)
3. *c1ccc2c(c1)C1(CC2(C)C)CC(C)(C)c2ccc(N3C(=O)c4cc5c(cc4C3=O)C3(CC(C)(C)c4cc6c(cc43)C(=O)N(*)C6=O)CC5(C)C)cc21 (repeat unit)

[0.0157, 176, 65]

Items follow; give N2 permeability for each.
1. *c1ccc(Oc2ccc(N3C(=O)c4ccc([Si](C)(C)c5ccc6c(c5)C(=O)N(*)C6=O)cc4C3=O)cc2)cc1 (repeat unit)
2. *CC(*)(F)F (repeat unit)
3. *C(C)=C(*)C(C)C (repeat unit)

[0.104, 0.0223, 1250]

---

// NB: equality with 9 Barrer counts as label 0; only CO2 permeability strictly below is label 1

Quick check: CO2 permeability of *OC(=O)Oc1ccc(C2(c3ccc(*)cc3)CCCCC2)cc1 (repeat unit) under 9 Barrer?
label 1

Quick check: CO2 permeability of *c1ccc(Oc2ccc(N3C(=O)c4ccc(C(=O)c5ccc6c(c5)C(=O)N(*)C6=O)cc4C3=O)cc2)cc1 (repeat unit) under 9 Barrer?
label 1

Quick check: CO2 permeability of *Oc1cc(C)c(C(c2cc(C(C)C)c(Oc3ccc(S(=O)(=O)c4ccc(*)cc4)cc3)cc2C)c2ccccc2C(=O)O)cc1C(C)C (repeat unit) under 9 Barrer?
label 0

Quick check: CO2 permeability of *c1ccc2c(c1)-c1nc3ccc(-c4ccc5c(c4)nc4n5C(=O)c5cc(C(c6ccc7c(c6)C(=O)N(*)C7=O)(C(F)(F)F)C(F)(F)F)ccc5-4)cc3n1C2=O (repeat unit) under 9 Barrer?
label 0

Quick check: CO2 permeability of *Oc1ccc(S(=O)(=O)c2ccc(-c3ccc(S(=O)(=O)c4ccc(Oc5ccc(C(C)(C)c6ccc(*)cc6)cc5)cc4)cc3)cc2)cc1 (repeat unit) under 9 Barrer?
label 0

Quick check: CO2 permeability of *CC(C)C(=O)OC(C)C(*)=O (repeat unit) under 9 Barrer?
label 1

Quick check: CO2 permeability of *Oc1ccc(-c2c(-c3ccccc3)c(-c3ccccc3)c(-c3ccc4c(c3)Oc3c(C#N)c(*)c(*)c(C#N)c3O4)c(-c3ccccc3)c2-c2ccccc2)cc1O* (repeat unit) under 9 Barrer?
label 0

---

Would you kindly list O2 permeability for each of these molecules?
Give bare numbers, in Barrer.

The cases that follow already have their O2 permeability on record.
1. *c1ccc2c(c1)Cc1cc(N3C(=O)c4ccc(C(c5ccc6c(c5)C(=O)N(*)C6=O)(C(F)(F)F)C(F)(F)F)cc4C3=O)ccc1-2 (repeat unit)    7.85
2. */N=C1/c2ccc(C(c3ccc4c(c3)-c3nc5cc(Oc6ccc(*)c(*)c6)ccc5n3C4=O)(C(F)(F)F)C(F)(F)F)cc2C(=O)N1* (repeat unit)    7.9
3. *CC(*)c1ccc(C)cc1 (repeat unit)    7.2

Here is another molecule to look at.
Entry *O[Si](*)(C)c1ccccc1 (repeat unit) has what O2 permeability?
28.8

---

measurement_type: CO2 permeability (Barrer)
Answers are plain numbers, in Barrer.

The cases that follow already have their CO2 permeability on record.
1. *C(=C(*)c1ccc2c(c1)C(C)(C)c1cc(Br)ccc1-2)c1ccccc1 (repeat unit)    8000
2. *c1ccc(Oc2ccc(C(c3ccc(Oc4ccc(N5C(=O)c6ccc(C(=O)c7ccc8c(c7)C(=O)N(*)C8=O)cc6C5=O)cc4)cc3)(C(F)(F)F)C(F)(F)F)cc2)cc1 (repeat unit)    4.67

Items follow; give CO2 permeability for each.
1. *Oc1c(C)cc(*)c(C(=O)c2ccc([N+](=O)[O-])cc2)c1C (repeat unit)
2. */C(C)=C(/*)[Si](C)(C)CCCC (repeat unit)

11.4
100

---

Would you kindly list CO2 permeability for each of these molecules?

1. *CC(*)(F)F (repeat unit)    0.517 Barrer
2. *C(=C(*)c1ccc([Si](C)(C)C)cc1)c1ccc(-c2ccc(C(C)(C)C)cc2)cc1 (repeat unit)    3300 Barrer
3. *Oc1ccc(S(=O)(=O)c2ccc(Oc3ccc(C4(c5ccc(*)cc5)c5ccccc5-c5ccccc54)cc3)cc2)cc1 (repeat unit)    13.8 Barrer

Here is another molecule to look at.
Entry *C1C2CC(CF)C(C2)C1* (repeat unit) has what CO2 permeability?
200 Barrer

---

Would you kindly list N2 permeability for each of these compounds?
Report field: quantity (unit follows the number).

The cases that follow already have their N2 permeability on record.
1. *CN1CN(*)c2cc3c(cc21)C1(C(C)C)c2ccccc2C3(C(C)C)c2cc(*)c(*)cc21 (repeat unit)    188 Barrer
2. *c1ccc2c(c1)C(=O)n1c-2nc2ccc(Oc3ccc4c(c3)nc3n4C(=O)c4ccc(*)cc4-3)cc21 (repeat unit)    0.023 Barrer
3. *CC(*)OC1CC2CCC1C2 (repeat unit)    0.96 Barrer
4. *Oc1cccc2c(Oc3ccc(S(=O)(=O)c4ccc(*)cc4)cc3)cccc12 (repeat unit)    0.057 Barrer
5. *c1ccc(N2C(=O)c3ccc(C(c4ccc5c(c4)C(=O)N(*)C5=O)(C(F)(F)F)C(F)(F)F)cc3C2=O)cc1 (repeat unit)    2.57 Barrer

Items follow; give N2 permeability for each.
1. *Oc1ccc(S(=O)(=O)c2ccc(Oc3ccc(C(C)(C)c4ccc(*)c(C(O)(C(F)(F)F)C(F)(F)F)c4)cc3C(O)(C(F)(F)F)C(F)(F)F)cc2)cc1 (repeat unit)
2. *CC(*)c1ccc(OC(C)=O)cc1 (repeat unit)
3. *Oc1c(Br)cc(C2(c3cc(Br)c(OC(=O)c4cccc(C(*)=O)c4)c(Br)c3)OC(=O)c3ccccc32)cc1Br (repeat unit)

1: 0.22 Barrer; 2: 0.64 Barrer; 3: 0.282 Barrer

Items follow; give N2 permeability for each.
1. *Oc1ccc(S(=O)(=O)c2ccc(Oc3ccc(C(C)(C)c4ccc(*)c(C)c4)cc3C)cc2)cc1 (repeat unit)
2. *Oc1ccc(C(C)(C)c2ccc(OC(=O)c3cc(C(*)=O)cc(C(C)(C)C)c3)cc2)cc1 (repeat unit)

["0.0914 Barrer", "1.18 Barrer"]

---

measurement_type: H2 permeability (Barrer)
One number for each entry, in Barrer.

The cases that follow already have their H2 permeability on record.
1. *c1c(C)cc(C)c(N2C(=O)c3ccc(C(=O)c4ccc5c(c4)C(=O)N(*)C5=O)cc3C2=O)c1C (repeat unit)    46.4
2. *OC(=O)Oc1ccc(C2(c3ccc(*)cc3)CCCCC2)cc1 (repeat unit)    9.1
3. *CC(*)[Si](C)(C)C (repeat unit)    200
4. *c1ccc(-c2ccc(N3C(=O)c4ccc([Si](C)(C)c5ccc6c(c5)C(=O)N(*)C6=O)cc4C3=O)cc2)cc1 (repeat unit)    8.38

Entry *CC(*)C(=O)OC (repeat unit) has what H2 permeability?
10.6

---

measurement_type: CO2 permeability (Barrer)
Give bare numbers, in Barrer.

The cases that follow already have their CO2 permeability on record.
1) *O[Si](C)(C)c1ccc([Si](*)(C)C)cc1 (repeat unit)    65
2) *C(C)=C(*)C(C)C (repeat unit)    10700

Entry *C(=C(*)c1ccc2c(c1)C(C)(C)CC2(C)C)c1cccc(F)c1 (repeat unit) has what CO2 permeability?
35200

---

Would you kindly list N2 permeability for each of these compounds?
Numbers only, in Barrer.

1) *c1c(C)cc(C)c(N2C(=O)c3ccc(C(c4ccc5c(c4)C(=O)N(*)C5=O)(C(F)(F)F)C(F)(F)F)cc3C2=O)c1C (repeat unit)    24.3
2) *c1c(C)cc(-c2cc(C)c(-n3c(=O)c4cc5oc6cc7c(cc6oc5cc4c3=O)C3(C)CCC7(C)c4cc5oc6cc7c(=O)n(*)c(=O)c7cc6oc5cc43)c3ccccc23)c2ccccc12 (repeat unit)    141

Entry *c1c(C)cc2c(c1C)C1c3ccccc3C2c2cc(C)c(-n3c(=O)c4cc5oc6cc7c(cc6oc5cc4c3=O)C3(C(C)C)c4ccccc4C7(C(C)C)c4cc5oc6cc7c(=O)n(*)c(=O)c7cc6oc5cc43)c(C)c21 (repeat unit) has what N2 permeability?
306

---

Would you kindly list O2 permeability for each of these compounds?
Give bare numbers, in Barrer.

1. *Oc1c(Br)cc(C2(c3cc(Br)c(OC(=O)c4cccc(C(*)=O)c4)c(Br)c3)OC(=O)c3ccccc32)cc1Br (repeat unit)    1.96
2. *c1ccc(-c2ccc(Oc3ccc(C4(c5ccc(Oc6ccc(-c7ccc(N8C(=O)c9ccc(Oc%10ccc%11c(c%10)C(=O)N(*)C%11=O)cc9C8=O)cc7)cc6C(F)(F)F)cc5)c5ccccc5C(=O)N4c4ccccc4)cc3)c(C(F)(F)F)c2)cc1 (repeat unit)    4.22
3. *Oc1ccc(C(C)(C)c2ccc(Oc3ccc(S(=O)(=O)c4ccc(*)cc4)cc3)c(C)c2)cc1C (repeat unit)    0.64

Here is another compound to look at.
Entry *c1ccc(Sc2ccc(N3C(=O)c4ccc(C(c5ccc6c(c5)C(=O)N(*)C6=O)(C(F)(F)F)C(F)(F)F)cc4C3=O)cc2)cc1 (repeat unit) has what O2 permeability?
4.66
